- Tested on: Vero cells
- ASSAY DETAILS: Cytotoxicity / cytostasis test on the Vero line, % inhibition of proliferation (crystal violet)
- Format: cell-based, monkey
- ASSAY CONDITIONS: 80 μm [sic], 72 hours
REPORTED ENDPOINT: % inhibition of proliferation (%)
Provide only the numeric value, understood in %.

{"COMPOUND": "CCOC(=O)c1[nH]cc(C)c1-c1ccccc1 [(1)]", "% inhibition of proliferation, %": 46}
{"COMPOUND": "CCCCc1c(C)c(-c2ccccc2NC)c(CCC2OCCO2)n1C [(23)]", "% inhibition of proliferation, %": 69}
{"COMPOUND": "Cc1cn(C)c(C(=O)N(C(=O)NC2CCCCC2)C2CCCCC2)c1-c1ccccc1[N+](=O)[O-] [(10)]", "% inhibition of proliferation, %": 100}
{"COMPOUND": "CCCCc1c(C)c(-c2ccccc2N(C)C(=O)OCc2ccccc2)c(CCC2OCCO2)n1C [(22)]", "% inhibition of proliferation, %": 54}
{"COMPOUND": "CCOC(=O)c1[nH]cc(C)c1-c1ccccc1NC(=O)CNC(=O)OCc1ccccc1 [(6)]", "% inhibition of proliferation, %": 48}

For record COC(=O)c1[nH]cc(C)c1-c1cccc([N+](=O)[O-])c1 [(2)] the listed % inhibition of proliferation is 75
